system: SK-MEL-2 melanoma; experiment: NCI-60 one-dose screen, 48 h (100 = growth as untreated, 0 = no growth, -100 = all killed); conditions: 10 µM unless noted
Compounds without any hit were thinned out: in the full panel of roughly 83,000, 20% have a hit. The source made the active and inactive calls. The calls were made as follows: active = growth percent below 10; inactive = the rest.
value type: growth

Examples from the recorded data:
# structure string, assay value
records = [
    ("COc1ccc(C(=O)/C=C/c2cc(C(=O)c3cc(OC)c(OC)c(OC)c3)ccc2OC)cc1", "60.8% (inactive)"),
    ("O=C(Cc1c(F)cccc1Cl)Nc1ccc(S(=O)(=O)Nc2ncccn2)cc1", "73.1% (inactive)"),
]

Moving on to the next molecule.
[in] Reported growth for CCCCCCCCCCCCNC(=S)N/N=C/c1ccc(Cl)c(Cl)c1 : what is it?
[out] 99.8% (inactive)

----------
test system: UO-31 renal; assay: NCI-60 one-dose screen, 48 h; details: 10 µM unless noted
The panel holds about 83,000 compounds, 20% with a hit somewhere; the sample as a whole holds those more often. Activity calls are given as the source filed them. The calls were made as follows: active = growth percent below 10; inactive = the rest.
I would appreciate it if you answered using one of these outcomes: class 1 for active, class 0 for inactive

Please review the entries below; each comes with its answer.
# compound, assigned class
measured = [
    ("COc1cc(C2C=C(C)N=C3SC(C)=NN32)cc(OC)c1OC (stereo not drawn)", "class 0"),
    ("Cc1nc(Nc2cccnc2)sc1C(=O)/C=C/c1ccc(F)cc1", "class 0"),
    ("COc1cc(NC(=O)CSc2nc3ccc(C)cc3c(=O)n2-c2ccccc2)cc(OC)c1OC", "class 0"),
    ("CN1CCN(c2ccc3cc(-c4nc5ccccc5[nH]4)c(=O)oc3c2)CC1", "class 0"),
    ("C=C1C(=O)O[C@H]2[C@H]1CC/C(COC(=O)NCCc1cccc(OC)c1)=C\\CC[C@@]1(C)O[C@@H]21", "class 0"),
    ("CC(C)C[C@H](NC(=O)Cn1ccc(NCc2ccccc2)cc1=O)B(O)O", "class 1"),
    ("O=[N+]([O-])c1ccc(S(=O)(=O)N2CCN(c3ccnc4cc(Cl)ccc34)CC2)c([N+](=O)[O-])c1", "class 0"),
]

[in] Which outcome did this test record for the compound O=c1oc2cc(OS(=O)(=O)c3ccc(F)cc3)ccc2c2c1CCCCC2 ?
[out] class 0

----------
tested on: MDA-MB-435 melanoma; assay: NCI-60 one-dose screen, 48 h (100 = growth as untreated, 0 = no growth, -100 = all killed); settings: 10 µM unless noted
About 83,000 compounds went through this panel and 20% of them were active in at least one assay; those are over-represented in the sample as a whole.
Each entry below carries its recorded growth.
Give the value in % but do not write % after it.

As a guide, the following entries are already answered.
# molecule, growth (%)
data = [
    ("O=[N+]([O-])c1c(S(=O)(=O)O)cc2cc(S(=O)(=O)O)ccc2c1[N+](=O)[O-]", 105),
    ("COc1cc(/C=C2\\C=C(c3ccc(F)cc3)N(Cc3ccccc3)C2=O)cc(OC)c1OC", 75.2),
    ("C=CCOc1cccc(/C=C/C(=O)c2sc(Nc3cccnc3)nc2C)c1", 22.5),
]

[in] What measured growth is associated with O=C(O)c1ccc(-n2cc(CNc3ccc(C(F)(F)F)cc3)c(-c3ccccc3)n2)cc1 on MDA-MB-435 melanoma?
[out] 90.8

[in] Query the reported growth for MDA-MB-435 melanoma; item: COc1ccc(N=C2NN=C(c3ccc(F)cc3)CS2)cc1OC
[out] 83.3

[in] Enter reported growth observed with MDA-MB-435 melanoma for CC[C@H](C)[C@@H]1NC(=O)[C@H]([C@@H](C)O)NC(=O)C(Cc2ccccc2)NC(=O)[C@@H]2CCCN2C(=O)C(C(C)C)NC(=O)C(Cc2ccccc2)NC(=O)CNC(=O)[C@@H]2CCCN2C1=O (some centres not stated)
[out] 74

[in] Which growth is reported with MDA-MB-435 melanoma for this entry: C#CCN1C(=O)/C(=c2\sc3n(c2=O)NC2C(N=3)N(CC)C(=O)N2CC)c2ccccc21 (configuration not stated) ?
[out] -26.6

----------
test system: PC-3 prostate; experiment: NCI-60 one-dose screen, 48 h (100 = growth as untreated, 0 = no growth, -100 = all killed); settings: 10 µM unless noted
This is part of a sample that, as a whole, favours compounds with a hit. Of some 83,000 tested, about 20% had one in any assay.
Returns: string. Value is fulfilled if measured growth is below 70%, and not fulfilled if it is greater than or equal to it.

As a guide, the following entries are already answered.
# compound, system, assigned class
measured = [
    ("O=C(CCCn1c(=O)c2sc3ccccc3c2n2nnc(-c3ccccc3)c12)NCCc1cnc[nH]1", "PC-3 prostate", "fulfilled"),
    ("O=C(Nc1ccc(I)cc1)c1cccc([N+](=O)[O-])c1O", "PC-3 prostate", "fulfilled"),
    ("CCCCC[C@@H]1Cc2cc(O)c(C(=O)O)c3c2[C@H](C[C@@]2(CCCO2)O3)O1", "PC-3 prostate", "not fulfilled"),
    ("O=C(CNc1c(Cl)cccc1Cl)Nc1ccc(-c2nc3ccccc3s2)cc1", "PC-3 prostate", "not fulfilled"),
]

Consider the additional compound presented here.
[in] Lab note: growth threshold 70%. Does this compound come in strictly under it? COc1cccc(/C=C/C(=O)c2sc(Nc3ccc(O)cc3)nc2C)c1
[out] not fulfilled

----------
system: SF-295 CNS; assay: NCI-60 one-dose screen, 48 h; settings: 10 µM unless noted
The panel holds about 83,000 compounds, 20% with a hit somewhere; the sample as a whole holds those more often. The source made the active and inactive calls. How the source made its calls: active means growth percent below 10; inactive means the rest.
Pick one and only one: active, inactive

Before answering, review these 4 worked examples.
# molecule, system, assigned class
measured = [
    ("CC/C=C\\C/C=C\\C[C@H]1C/C=C2/C(=O)C=C[C@H]2C/C=C\\CCC(=O)O1", "SF-295 CNS", "active"),
    ("Oc1ccc(N=Cc2ccccc2)cc1", "SF-295 CNS", "inactive"),
    ("Nc1nn2cc(-c3ccc(Cl)s3)nc2c2ccccc12", "SF-295 CNS", "inactive"),
    ("C=C1C(=O)O[C@H]2[C@H]1CC/C(COC(=O)NCCc1cccc(OC)c1)=C\\CC[C@@]1(C)O[C@@H]21", "SF-295 CNS", "inactive"),
]

[in] Test call, this molecule: COc1ccc(/C=C/C(=O)c2ccc(B(O)O)cc2)cc1O
[out] inactive

[in] Status in this test for COc1cc(/C=C2\CCCC3=C2N=C2SC(C)=NN2C3c2cc(OC)c(OC)c(OC)c2)cc(OC)c1OC (stereo not given) ?
[out] active

[in] // return assay outcome for C=C1C(=O)O[C@H]2[C@H]1CC/C(COC(=O)NCCc1ccc(Br)cc1)=C\CC[C@@]1(C)O[C@@H]21
[out] inactive

[in] Look up the recorded call for O=C(Nc1cccc(C(F)(F)F)c1)Nc1ccc(OCc2nnc(-c3ccccc3)o2)c(F)c1 in this test.
[out] inactive

[in] Record lookup: outcome of this test for CC(=O)Nc1nc(C(=O)N2N=C(C)/C(=C/c3ccc(Cl)cc3)C2=O)cs1 ?
[out] inactive

[in] Which outcome was assigned to COc1ccc2c(c1)NC(=O)CN2c1nc(NC2CC2)nc2ccccc12 in this test?
[out] active

----------
test system: RXF 393 renal; test: NCI-60 one-dose screen, 48 h (100 = growth as untreated, 0 = no growth, -100 = all killed); settings: 10 µM unless noted
This is part of a sample that, as a whole, favours compounds with a hit. Of some 83,000 tested, about 20% had one in any assay.
# binning rule on growth: low (below 40%), intermediate (40% to below 60%), high (60% or more)

# compound, assigned class
records = [
    ("Oc1ccc(Cl)cc1-c1cc(-c2ccc(Cl)cc2)n[nH]1", "high"),
    ("O=C1NC(Cc2c[nH]c3ccccc23)C(=O)N1Cc1ccc(Cl)cc1 (stereo not given)", "high"),
    ("COc1ccc(/C=C/c2cc(N3CCOCC3)c3cc(F)c(F)cc3n2)cc1OC", "intermediate"),
]

[in] Classify this compound: Cc1ccc2c(c1)C(C)Cc1c(ncnc1-n1cnc3ccccc31)N2C (stereo not given)
[out] low

[in] Kindly identify the class of COc1ccc2c(c1)C(C)Cc1c(N(C)C)ncnc1N2C (stereo not given) .
[out] intermediate

[in] Please indicate the class for COc1cc(NC(=O)CSc2nc3ccc(C)cc3c(=O)n2-c2ccccc2)cc(OC)c1OC based on its growth.
[out] high

[in] For the record CCC(=O)Oc1cc(/C=C/C(=O)O[C@H]2C[C@H]3CN4CCc5c([nH]c6cc(OC)ccc56)[C@@H]4C[C@@H]3[C@@H](C(=O)OC)[C@@H]2OC)ccc1OC , report the class its growth corresponds to.
[out] intermediate

[in] Which bin, given its growth, does Cc1nc2sccn2c1-c1csc(Nc2ccccc2Cl)n1 occupy?
[out] high

[in] Assign a bin to C=C1C(=O)O[C@H]2[C@H](O)[C@@H](C)CCC/C(C)=C/CC[C@@]3(C)O[C@@H]3C[C@@H]12
[out] intermediate

[in] Band assignment needed for CC/C(=C(\c1ccc(O)cc1)c1ccc(OCCN(C)CCN(C)C(=O)CCC(=O)c2c(C)[nH]c(/C=C3\N=C(c4ccc[nH]4)C=C3OC)c2C)cc1)c1ccccc1 please.
[out] high

[in] Classify this compound: CCCCCCOc1ccc(C2(Cl)c3ccccc3N(C)c3ccccc32)cc1
[out] intermediate

[in] Each compound maps to one class by growth. Which class for COc1cccc2nc(Nc3ccc(NC(=O)c4ccc5ncccc5c4)cc3)ccc12 ?
[out] low

[in] Entry O=C(CNC(=O)c1cccc2ccccc12)Nc1ccccc1Oc1ccccc1 belongs to which category?
[out] low

[in] Which class is correct for the following compound? O=C(Nc1ccc(OCc2nnc(-c3ccc(Cl)cc3)o2)c(F)c1)Nc1ccc(Cl)c(Cl)c1
[out] intermediate

[in] Category of COc1ccc(C2CC(=O)Nc3c2c(C)nn3-c2nc3ccccc3[nH]2)cc1OC (stereo not given) :
[out] low

[in] Sort COc1ccc(/C(=N/O)c2cc(F)c(F)c(OC)c2F)cc1O into one of the categories.
[out] low

[in] Bin? Cc1cc(NC(=O)COC(=O)c2sc3cc(F)ccc3c2Cl)no1
[out] low

[in] Which class does COc1ccc([N+](=O)[O-])c(/C=C/C(=O)c2ccccn2)c1 fall in?
[out] high
